These measurements were taken from patent EP0554400B1.

# Tested on: HIV-1
# ASSAY INFO: HIV inhibition assay of acutely infected CEM cells (tetrazolium/MTT colorimetric)
# Assay type: cell-based
# ASSAY CONDITIONS: Table 7; CEM cells acutely infected with HIV-1, 7 days, MTT
VALUE TYPE: pEC50
Give bare numbers, as −log10 of the molar value.

Query CC(C)C[C@H](NC(=O)[C@@H](N)Cc1ccccc1)C(=O)NC(=O)NC[C@H](O)[C@H](Cc1ccccc1)NC(=O)OC(C)(C)C yields pEC50 of 4.89
